Examples of binders with documented glycan array binding signal (z-score) follow.
# system.tested: GlcNAc(b1-6)GalNAc
# run.description: glycan array binding signal (z-score within array); higher = stronger binding
# reported.conditions: glycan notation: IUPAC condensed, linker removed
Only a selection was taken, and the strongest signals are over-represented in it overall.
# output: bare number, no unit

Known glycan array binding signal (z-score) results, listed for orientation:
Pbx2CASH domain (Cryptococcus neoformans) (protein) GIPGPNRLYRLSGPIIFTAADQEIATYGYPTGSERAVLRVEGRNTATAIQGDCRRCARVSVKNLVVDGNRKKLGRMRDFQLATGLVVLGGNEGQSIQNSWIKNPRGFTAIHIREGDKLQCSGARVEKNEIGPVGEEYDPEKDGDDPEMSPLGRPLADGVSIACRDSFIRDNTFRDNTDAAIVVYCSPGTLIHA	-0.438
Epa11 (Candida glabrata) (protein) MGSSHHHHHHSSGLVPRGSHMASSNAPNYPVGCSPSVGTQLTPGLSLEVYAYPMDGNNGYCWNATYKDPEFPRSGYLKNKLLGKADGVVGPLNFLAKNKDCSPKVDTLPAGFNFPQPITVTNFTMVLFGYLAPKQSGKYTFKLLADDLLLLNLGATNAFDCCNREATKNNLGEFLAYNLWPNQDKNVTVYLEKGVYYPLRLFFNNRDGGSQLDFSYYFNDSPAPLTDFSGMFFSVPDGAECPARI	-0.586

Consider the binder Apa (Mycobacterium tuberculosis), Rv1860 (protein) MHQVDPNLTRRKGRLAALAIAAMASASLVTVAVPATANADPEPAPPVPTTAASPPSTAAAPPAPATPVAPPPPAAANTPNAQPGDPNAAPPPADPNAPPPPVIAPNAPQPVRIDNPVGGFSFALPAGWVESDAAHFDYGSALLSKTTGDPPFPGQPPPVANDTRIVLGRLDQKLYASAEATDSKAAARLGSDMGEFYMPYPGTRINQETVSLDANGVSGSASYYEVKFSDPSKPNGQIWTGVIGSPAANAPDAGPPQRWFVVWLGTANNPVDKGAAKALAESIRPLVAPPPAPAPAPAEPAPAPAPAGEVAPTPTTPTPQRTLPA . State its measured glycan array binding signal (z-score).
-0.174

Supply measured glycan array binding signal (z-score) of RSVL (Crotalus atrox), P21963 (protein) NNCPLDWLPMNGLCYKIFNQLKTWEDAEMFCRKYKPGCHLASFHRYGESLEIAEYISDYHKGQENVWIGLRDKKKDFSWEWTDRSCTDYLTWDKNQPDHYQNKEFCVELVSLTGYRLWNDQVCESKDAFLCQCKF in your reply.
1.02
